All values here come from paper PMC6403271.

Attribute: hemolysis at 1 h, 150 µM
Format: cell-based, human
Stated conditions: human
Square brackets hold non-standard residues; d marks the D form. Peptide text beside a SMILES is read from it. d1Nal = N[C@H](Cc1cccc2ccccc12)C(=O)O; d2Nal = N[C@H](Cc1ccc2ccccc2c1)C(=O)O; dNle = CCCC[C@@H](N)C(=O)O
Measured endpoint: hemolysis at 1 h, 150 µM

>>> result("CCCC[C@@H](NC(=O)[C@H](CCCCN)NC(=O)[C@H](CCCCN)NC(=O)[C@@H](N)CCCCN)C(=O)N[C@H](Cc1cccc2ccccc12)C(=O)N[C@H](Cc1ccccc1)C(=O)N[C@H](Cc1cccc2ccccc12)C(N)=O [Compound 26] (H-KKK[dNle][d1Nal][dF][d1Nal]-NH2; N-terminus assumed)")
"56%"
>>> result("CC(C)C[C@@H](NC(=O)[C@@H](Cc1cccc2ccccc12)NC(=O)[C@@H](Cc1ccccc1)NC(=O)[C@H](N)Cc1cccc2ccccc12)C(=O)N[C@@H](CCCCN)C(=O)N[C@@H](CCCCN)C(=O)N[C@@H](CCCCN)C(N)=O [Compound 21] (H-[d1Nal][dF][d1Nal][dL]KKK-NH2; N-terminus assumed)")
"< 8%"
>>> result("CC(C)C[C@@H](NC(=O)[C@H](CCCCN)NC(=O)[C@@H](N)CCCCN)C(=O)N[C@@H](CCCCN)C(=O)N[C@H](Cc1ccc2ccccc2c1)C(=O)N[C@H](Cc1ccccc1)C(=O)N[C@H](Cc1ccc2ccccc2c1)C(N)=O [Compound 17] (H-KK[dL]K[d2Nal][dF][d2Nal]-NH2; N-terminus assumed)")
"40%"

###

System: human red blood cells
Assay type: cell-based
Square brackets hold non-standard residues; d marks the D form. Peptide text beside a SMILES is read from it. N(1-naphthylmethyl)Gly = O=C(O)CNCc1cccc2ccccc12; 2Nal = N[C@@H](Cc1ccc2ccccc2c1)C(=O)O; d2Nal = N[C@H](Cc1ccc2ccccc2c1)C(=O)O; N(4-MeBn)Gly = Cc1ccc(CNCC(=O)O)cc1; NBuGly = CCCCNCC(=O)O
Attribute: Haemolysis EC10
Measured endpoint: Haemolysis EC10

>>> result("CC(C)C[C@@H](NC(=O)[C@H](CCCCN)NC(=O)[C@@H](N)CCCCN)C(=O)N[C@@H](CCCCN)C(=O)N[C@H](Cc1ccc2ccccc2c1)C(=O)N[C@H](Cc1ccccc1)C(=O)N[C@H](Cc1ccc2ccccc2c1)C(N)=O [Compound 17] (H-KK[dL]K[d2Nal][dF][d2Nal]-NH2; N-terminus assumed)")
"8 µM"
>>> result("CC(C)C[C@H](NC(=O)[C@H](CCCCN)NC(=O)[C@H](CCCCN)NC(=O)[C@@H](N)CCCCN)C(=O)N[C@@H](Cc1ccc2ccccc2c1)C(=O)N[C@@H](Cc1ccccc1)C(=O)N[C@@H](Cc1ccc2ccccc2c1)C(N)=O [Compound 9] (H-KKKL[2Nal]F[2Nal]-NH2; N-terminus assumed)")
"46 µM"
>>> result("CCCCN(CC(=O)N[C@@H](CCCCN)C(=O)N(CC(=O)N(CC(=O)N(CC(N)=O)Cc1cccc2ccccc12)Cc1ccc(C)cc1)Cc1cccc2ccccc12)C(=O)[C@H](CCCCN)NC(=O)[C@@H](N)CCCCN [B1] (H-KK[NBuGly]K[N(1-naphthylmethyl)Gly][N(4-MeBn)Gly][N(1-naphthylmethyl)Gly]-NH2)")
"64 µM"

###

Attribute: Haemolysis EC10
Tested on: human red blood cells
Assay type: cell-based
Square brackets hold non-standard residues; d marks the D form. Peptide text beside a SMILES is read from it. N(1-naphthylmethyl)Gly = O=C(O)CNCc1cccc2ccccc12; 1Nal = N[C@@H](Cc1cccc2ccccc12)C(=O)O; 2Nal = N[C@@H](Cc1ccc2ccccc2c1)C(=O)O; d2Nal = N[C@H](Cc1ccc2ccccc2c1)C(=O)O; Nle = CCCC[C@H](N)C(=O)O; Nphe = O=C(O)CNCc1ccccc1; NBuGly = CCCCNCC(=O)O
Measured endpoint: Haemolysis EC10 (µM)

>>> number("CC(C)C[C@@H](NC(=O)[C@H](CCCCN)NC(=O)[C@H](CCCCN)NC(=O)[C@@H](N)CCCCN)C(=O)N[C@H](Cc1ccc2ccccc2c1)C(=O)N[C@H](Cc1ccccc1)C(=O)N[C@H](Cc1ccc2ccccc2c1)C(N)=O [Compound 16] (H-KKK[dL][d2Nal][dF][d2Nal]-NH2; N-terminus assumed)")
18
>>> number("CCCC[C@H](NC(=O)[C@H](CCCCN)NC(=O)[C@H](CCCCN)NC(=O)[C@@H](N)CCCCN)C(=O)N[C@@H](Cc1cccc2ccccc12)C(=O)N[C@@H](Cc1ccccc1)C(=O)N[C@@H](Cc1cccc2ccccc12)C(N)=O [Compound 24] (H-KKK[Nle][1Nal]F[1Nal]-NH2; N-terminus assumed)")
3
>>> number("CCCC[C@H](NC(=O)[C@H](CCCCN)NC(=O)[C@H](CCCCN)NC(=O)[C@@H](N)CCCCN)C(=O)N[C@@H](Cc1ccc2ccccc2c1)C(=O)N[C@@H](Cc1ccccc1)C(=O)N[C@@H](Cc1ccc2ccccc2c1)C(N)=O [Compound 23] (H-KKK[Nle][2Nal]F[2Nal]-NH2)")
14
>>> number("CC(C)C[C@H](NC(=O)[C@H](CCCCN)NC(=O)[C@H](CCCCN)NC(=O)[C@@H](N)CCCCN)C(=O)N[C@@H](Cc1cccc2ccccc12)C(=O)N[C@@H](Cc1ccccc1)C(=O)N[C@@H](Cc1cccc2ccccc12)C(N)=O [Compound 7] (H-KKKL[1Nal]F[1Nal]-NH2; N-terminus assumed)")
8
>>> number("CCCCN(CC(=O)N[C@@H](CCCCN)C(=O)N[C@@H](CCCCN)C(=O)N[C@@H](CCCCN)C(N)=O)C(=O)CN(Cc1cccc2ccccc12)C(=O)CN(Cc1ccccc1)C(=O)CNCc1cccc2ccccc12 [Compound 4] (H-[N(1-naphthylmethyl)Gly][Nphe][N(1-naphthylmethyl)Gly][NBuGly]KKK-NH2; N-terminus assumed)")
54

###

Test system: human red blood cells
Format: cell-based
Stated conditions: red cells of human, 1 h
Protocol: Briefly, two-fold serial dilutions (2.35 to 150 μM) of compounds in phosphate buffer saline (PBS) were mixed with equal volume of 0.5% v/v suspension of fresh human red blood cells (RBC) in the same buffer. After 1 h incubation at 37 °C, plates were centrifuged and aliquots of the supernatants were transferred to clear 96-well plates. Absorbance at 414 nm was measured and normalized using a negative (PBS, 0%) and a positive (melittin, 100%) control. […]
pEC50: −log10 of the molar value. Square brackets hold non-standard residues; d marks the D form. Peptide text beside a SMILES is read from it. N(1-naphthylmethyl)Gly = O=C(O)CNCc1cccc2ccccc12; 1Nal = N[C@@H](Cc1cccc2ccccc12)C(=O)O; 2Nal = N[C@@H](Cc1ccc2ccccc2c1)C(=O)O; d1Nal = N[C@H](Cc1cccc2ccccc12)C(=O)O; d2Nal = N[C@H](Cc1ccc2ccccc2c1)C(=O)O; N(4-MeBn)Gly = Cc1ccc(CNCC(=O)O)cc1; dNle = CCCC[C@@H](N)C(=O)O; Nle = CCCC[C@H](N)C(=O)O; NBuGly = CCCCNCC(=O)O
Measured endpoint: pEC50

>>> number("CCCCN(CC(=O)N[C@@H](CCCCN)C(=O)N(CC(=O)N(CC(=O)N(CC(N)=O)Cc1cccc2ccccc12)Cc1ccc(C)cc1)Cc1cccc2ccccc12)C(=O)[C@H](CCCCN)NC(=O)[C@@H](N)CCCCN [B1] (H-KK[NBuGly]K[N(1-naphthylmethyl)Gly][N(4-MeBn)Gly][N(1-naphthylmethyl)Gly]-NH2)")
3.64
>>> number("CCCC[C@@H](NC(=O)[C@H](CCCCN)NC(=O)[C@H](CCCCN)NC(=O)[C@@H](N)CCCCN)C(=O)N[C@H](Cc1cccc2ccccc12)C(=O)N[C@H](Cc1ccccc1)C(=O)N[C@H](Cc1cccc2ccccc12)C(N)=O [Compound 26] (H-KKK[dNle][d1Nal][dF][d1Nal]-NH2; N-terminus assumed)")
4.20
>>> number("CC(C)C[C@@H](NC(=O)[C@H](CCCCN)NC(=O)[C@H](CCCCN)NC(=O)[C@@H](N)CCCCN)C(=O)N[C@H](Cc1ccc2ccccc2c1)C(=O)N[C@H](Cc1ccc(O)cc1)C(=O)N[C@H](Cc1ccc2ccccc2c1)C(N)=O [Compound 28] (H-KKK[dL][d2Nal][dY][d2Nal]-NH2; N-terminus assumed)")
4.30
>>> number("CC(C)C[C@H](NC(=O)[C@H](CCCCN)NC(=O)[C@H](CCCCN)NC(=O)[C@@H](N)CCCCN)C(=O)N[C@@H](Cc1cccc2ccccc12)C(=O)N[C@@H](Cc1ccccc1)C(=O)N[C@@H](Cc1cccc2ccccc12)C(N)=O [Compound 7] (H-KKKL[1Nal]F[1Nal]-NH2; N-terminus assumed)")
3.85
>>> number("CC(C)C[C@@H](NC(=O)[C@H](CCCCN)NC(=O)[C@H](CCCCN)NC(=O)[C@@H](N)CCCCN)C(=O)N[C@H](Cc1ccc2ccccc2c1)C(=O)N[C@H](Cc1ccccc1)C(=O)N[C@H](Cc1ccc2ccccc2c1)C(N)=O [Compound 16] (H-KKK[dL][d2Nal][dF][d2Nal]-NH2; N-terminus assumed)")
3.93
>>> number("CCCC[C@H](NC(=O)[C@H](CCCCN)NC(=O)[C@H](CCCCN)NC(=O)[C@@H](N)CCCCN)C(=O)N[C@@H](Cc1ccc2ccccc2c1)C(=O)N[C@@H](Cc1ccccc1)C(=O)N[C@@H](Cc1ccc2ccccc2c1)C(N)=O [Compound 23] (H-KKK[Nle][2Nal]F[2Nal]-NH2)")
3.98
>>> number("CC(C)C[C@@H](NC(=O)[C@H](CCCCN)NC(=O)[C@@H](N)CCCCN)C(=O)N[C@@H](CCCCN)C(=O)N[C@H](Cc1cccc2ccccc12)C(=O)N[C@H](Cc1ccccc1)C(=O)N[C@H](Cc1cccc2ccccc12)C(N)=O [Compound 14] (H-KK[dL]K[d1Nal][dF][d1Nal]-NH2; N-terminus assumed)")
3.89
